Field: IC50. Provide a value for each of the compounds that follow.
target-or-system: Histone deacetylase 1 (Homo sapiens)
Sequence (Q13547 whole entry): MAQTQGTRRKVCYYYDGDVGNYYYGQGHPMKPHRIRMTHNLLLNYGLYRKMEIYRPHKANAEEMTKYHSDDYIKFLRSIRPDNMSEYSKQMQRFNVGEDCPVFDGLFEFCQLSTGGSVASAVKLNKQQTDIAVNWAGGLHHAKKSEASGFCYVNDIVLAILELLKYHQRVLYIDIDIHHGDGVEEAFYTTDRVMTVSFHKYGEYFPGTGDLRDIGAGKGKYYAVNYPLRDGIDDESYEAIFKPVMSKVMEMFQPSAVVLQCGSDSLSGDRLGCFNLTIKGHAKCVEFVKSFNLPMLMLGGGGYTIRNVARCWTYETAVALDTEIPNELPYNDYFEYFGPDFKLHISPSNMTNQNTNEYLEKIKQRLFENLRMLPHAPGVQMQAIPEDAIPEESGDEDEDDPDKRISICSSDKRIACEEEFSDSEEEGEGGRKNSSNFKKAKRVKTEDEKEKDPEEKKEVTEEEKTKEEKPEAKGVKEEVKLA
assay-notes: Inhibition of recombinant HDAC1 (unknown origin) expressed in Escherichia coli BL21(DE3) after 60 mins using trichostatin A by label-free mass spectrometry-based SAMDI assay
Give just the numeric value; µM need not be written.

Input: Retrieve IC50 measured for CC[C@H]1OC(=O)[C@H](C)C(=O)[C@H](C)[C@@H](O[C@@H]2O[C@H](C)C[C@H](N(C)Cc3ccc(-c4cn(CCCCCCC(=O)NO)nn4)cc3)[C@H]2O)[C@@](C)(OC)C[C@@H](C)C2=NCCN3C(=O)O[C@@]1(C)[C@H]3[C@H]2C and print it.
Output: 0.0208

Input: Retrieve IC50 measured for CC[C@H]1OC(=O)[C@@H](C)[C@H](O[C@H]2C[C@@](C)(OC)[C@@H](O)[C@H](C)O2)[C@H](C)[C@H](O[C@H]2O[C@@H](C)C[C@@H](N(C)Cc3ccc(-c4cn(CCCCCCC(=O)NO)nn4)cc3)[C@@H]2O)[C@@](C)(O)C[C@H](C)CN(C)[C@@H](C)[C@H](O)[C@@]1(C)O (stereo in doubt) and print it.
Output: 0.0686
